- TEST SYSTEM: Neutrophil collagenase (Homo sapiens, UniProt P22894)
- Sequence (P22894 whole entry, the tested form may be a part): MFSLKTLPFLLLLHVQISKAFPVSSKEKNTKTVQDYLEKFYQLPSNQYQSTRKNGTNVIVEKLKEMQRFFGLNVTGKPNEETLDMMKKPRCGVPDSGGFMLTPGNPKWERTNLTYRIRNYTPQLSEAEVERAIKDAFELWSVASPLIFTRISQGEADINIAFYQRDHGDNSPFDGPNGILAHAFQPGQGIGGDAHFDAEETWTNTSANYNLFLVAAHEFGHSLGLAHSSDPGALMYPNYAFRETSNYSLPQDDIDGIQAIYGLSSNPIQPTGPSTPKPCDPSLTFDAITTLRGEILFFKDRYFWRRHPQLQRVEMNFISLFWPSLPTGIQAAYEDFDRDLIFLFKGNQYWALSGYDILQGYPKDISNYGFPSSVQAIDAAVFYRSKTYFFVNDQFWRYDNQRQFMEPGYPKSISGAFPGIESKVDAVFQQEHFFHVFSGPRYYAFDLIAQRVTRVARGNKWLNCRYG
- MEASUREMENT DESCRIPTION: Inhibition of recombinant human MMP8 catalytic domain (Phe99 to Gln269 residues) expressed in Escherichia coli cells using Mca-Pro-Leu-Gly-Leu-Dpa-Ala-Arg-NH2/TQ3-GABA-Pro-Cha-Abu-Smc-His-Ala-Dab(6'-TAMRA)-Ala-Lys-NH2 as fluorogenic substrate preincubated for 15 mins followed by substrate addition measured after 2 to 4 hrs by fluorometric assay
Each entry below carries its recorded IC50.
READOUT NAME: IC50 (µM)

>>> result_value("O=C(Nc1ccc(-c2nc3ccccc3[nH]2)cc1)c1ccccc1")
28
>>> result_value("COC(=O)c1ccc(-c2nc3ccc(Br)cc3[nH]2)cc1")
26.3
>>> result_value("Cc1ccc2nc(-c3cccc([N+](=O)[O-])c3)[nH]c2c1")
27
>>> result_value("O=C(CCCc1ccccc1)Nc1ccc(-c2nc3ccc(Br)cc3[nH]2)cc1")
67
>>> result_value("Cc1ccc2oc(-c3ccc(NC(=O)c4ccc([N+](=O)[O-])cc4)cc3)nc2c1")
14.7
>>> result_value("O=C(CCc1ccccc1)Nc1ccc(-c2nc3ccc(Br)cc3[nH]2)cc1")
8
>>> result_value("Cc1ccc2nc(-c3cccc(NC(=O)CCc4ccccc4)c3)[nH]c2c1")
32

Data origin, for the record: ChEMBL document CHEMBL4616594
